- Tested on: HCoV-229E
- Procedure Details: microbe, parasite or virus in culture
- Format: cell-based, Homo sapiens sapiens
- Protocol Conditions: Human coronavirus 229E, Huh7.5, read-out: IC50 (µM), HCoV 229E
Assign labels as follows, please: YES for IC50 below 2 µM; NO for IC50 equal to or exceeding 2 µM.

[[record]]
compound = "COc1cccc(CCc2ccccc2OCC[C@@H]2C[C@@H](O)CN2C)c1"
system_tested = "HCoV-229E"
class_assignment = "NO"

[[record]]
compound = "CNc1cc(OC)c(C(=O)N[C@@H]2CCN(Cc3ccccc3)[C@@H]2C)cc1Cl"
system_tested = "HCoV-229E"
class_assignment = "NO"

[[record]]
compound = "CCCN(CCC)C(=O)C(Cc1ccc(OCCCN2CCN(C)CC2)cc1)NC(=O)c1ccc(Br)cc1 (stereo not shown)"
system_tested = "HCoV-229E"
class_assignment = "NO"

[[record]]
compound = "CC(C)NCC(O)COc1ccc(CC(=O)OCCC23CC4CC(CC(C4)C2)C3)cc1 (stereo not shown)"
system_tested = "HCoV-229E"
class_assignment = "YES"

[[record]]
compound = "CC(C)Oc1ccc(-c2nc(-c3cccc4c3CC[C@@H]4NCCO)no2)cc1C#N"
system_tested = "HCoV-229E"
class_assignment = "YES"

[[record]]
compound = "CCc1ccc2c(c1)N(CC(C)CN(C)C)c1ccccc1S2 (stereo not shown)"
system_tested = "HCoV-229E"
class_assignment = "YES"

[[record]]
compound = "CN1C[C@H](CNC(=O)OCc2ccccc2)C[C@@H]2c3cccc4c3c(cn4C)C[C@H]21"
system_tested = "HCoV-229E"
class_assignment = "YES"

[[record]]
compound = "COCCN1CCC(N(Cc2ccc(-c3ccc(C(F)(F)F)cc3)cc2)C(=O)c2ccco2)CC1"
system_tested = "HCoV-229E"
class_assignment = "YES"

[[record]]
compound = "CC(CN(C)C)CN1c2ccccc2CCc2ccccc21 (stereo not shown)"
system_tested = "HCoV-229E"
class_assignment = "YES"

[[record]]
compound = "CCNCc1cc(Nc2ccnc3cc(Cl)ccc23)ccc1O"
system_tested = "HCoV-229E"
class_assignment = "YES"

[[record]]
compound = "CC(OCCN1CCCCCC1)(c1ccccc1)c1ccc(Cl)cc1 (stereo not shown)"
system_tested = "HCoV-229E"
class_assignment = "YES"

[[record]]
compound = "CCN(CC)CCOc1ccc(-c2nc3cc(Cl)ccc3s2)cc1"
system_tested = "HCoV-229E"
class_assignment = "YES"

[[record]]
compound = "O=c1[nH]c2cc(Cl)ccc2n1C1CCN(CCCC(c2ccc(F)cc2)c2ccc(F)cc2)CC1"
system_tested = "HCoV-229E"
class_assignment = "YES"

[[record]]
compound = "CCN1[C@@H]2CC[C@H]1C[C@@H](OC(c1ccccc1)c1ccccc1)C2"
system_tested = "HCoV-229E"
class_assignment = "YES"

[[record]]
compound = "Cc1ccc([C@@H](CCNCC2CCCCC2)[C@@H]2CCOC(C)(C)C2)cc1F"
system_tested = "HCoV-229E"
class_assignment = "YES"

[[record]]
compound = "COC(=O)C1=C(C)NC(C)=C(C(=O)OCCCN2CCC(c3ccccc3)(c3ccccc3)CC2)[C@@H]1c1cccc([N+](=O)[O-])c1"
system_tested = "HCoV-229E"
class_assignment = "YES"

[[record]]
compound = "CCCCC1=Cc2cc3c(cc2C1N1CCN(C)CC1)OCO3 (stereo not shown)"
system_tested = "HCoV-229E"
class_assignment = "NO"

[[record]]
compound = "Cc1cc(OCCN(C)C)c(C(C)C)cc1OC(=O)CC(C)(C)SN=O"
system_tested = "HCoV-229E"
class_assignment = "NO"

[[record]]
compound = "CCCCCCOC(=O)NC(=N)c1ccc(NCc2nc3cc(C(=O)N(CCC(=O)OCC)c4ccccn4)ccc3n2C)cc1"
system_tested = "HCoV-229E"
class_assignment = "NO"

[[record]]
compound = "CN(C)CCC=C1c2ccccc2C(C)(C)c2ccccc21"
system_tested = "HCoV-229E"
class_assignment = "YES"

[[record]]
compound = "CC(Cc1ccccc1)NCCC(c1ccccc1)c1ccccc1 (stereo not shown)"
system_tested = "HCoV-229E"
class_assignment = "YES"

[[record]]
compound = "CN(C)CCOC(c1ccccc1)c1ccc(Br)cc1 (stereo not shown)"
system_tested = "HCoV-229E"
class_assignment = "NO"

[[record]]
compound = "c1ccc2c(c1)Sc1ccccc1N2CC1CN2CCC1CC2 (stereo not shown)"
system_tested = "HCoV-229E"
class_assignment = "YES"

[[record]]
compound = "CN(C)CC(O)COc1ccccc1C1CC2CCC1C2 (stereo not shown)"
system_tested = "HCoV-229E"
class_assignment = "YES"

[[record]]
compound = "OCCN1CCN(CCC=C2c3ccccc3Sc3ccc(C(F)(F)F)cc32)CC1"
system_tested = "HCoV-229E"
class_assignment = "YES"

[[record]]
compound = "CN(C)CCCN1c2ccccc2Sc2ccc(C(F)(F)F)cc21"
system_tested = "HCoV-229E"
class_assignment = "YES"

[[record]]
compound = "CN[C@@H](CC(C)C)C(=O)NCCCC(c1ccc(F)cc1)c1ccc(F)cc1"
system_tested = "HCoV-229E"
class_assignment = "NO"

[[record]]
compound = "OCCN1CCN(CCCN2c3ccccc3Sc3ccc(Cl)cc32)CC1"
system_tested = "HCoV-229E"
class_assignment = "YES"

[[record]]
compound = "COc1cc2c(cc1NS(=O)(=O)c1ccc(-c3ccc(Cl)s3)cc1)CCN(C)CC2"
system_tested = "HCoV-229E"
class_assignment = "YES"

[[record]]
compound = "CCCN(CCC)C(=O)C(Cc1ccc(OCCCN2CCN(C)CC2)cc1)NC(=O)c1ccc(Cl)cc1 (stereo not shown)"
system_tested = "HCoV-229E"
class_assignment = "NO"

[[record]]
compound = "Oc1ccc2c(c1)OC[C@@H](c1ccccc1)[C@H]2c1ccc(OCCN2CCCC2)cc1"
system_tested = "HCoV-229E"
class_assignment = "YES"

[[record]]
compound = "CC(C)C(=O)c1ccc(OCCCN2CCC(C(O)(c3ccc(F)cc3)c3ccc(F)cc3)CC2)cc1"
system_tested = "HCoV-229E"
class_assignment = "YES"

[[record]]
compound = "CCCCc1oc2ccc(C(=O)OC(C)C)cc2c1C(=O)c1ccc(CCCN(CCCC)CCCC)cc1"
system_tested = "HCoV-229E"
class_assignment = "YES"


----------
- Procedure Details: in vitro
- Protocol Conditions: human
viability at 5 µM for assorted compounds
Endpoint: viability at 5 µM (%)

[[record]]
compound = "CN(C)CCCN1c2ccccc2Sc2ccc(C(F)(F)F)cc21"
endpoint = "viability at 5 µM"
measured_result = 159

[[record]]
compound = "CC(C)Oc1ccc(-c2nc(-c3cccc4c3CC[C@@H]4NCCO)no2)cc1C#N"
endpoint = "viability at 5 µM"
measured_result = 129

[[record]]
compound = "Cn1cc(C2=C(c3c4n(c5ccccc35)CCC(CN)C4)C(=O)NC2=O)c2ccccc21 (stereo not shown)"
endpoint = "viability at 5 µM"
measured_result = 154

[[record]]
compound = "CC(C)C(=O)c1ccc(OCCCN2CCC(C(O)(c3ccc(F)cc3)c3ccc(F)cc3)CC2)cc1"
endpoint = "viability at 5 µM"
measured_result = 119


----------
- System: HCoV-229E
- Procedure Details: microbe, parasite or virus in culture
- Format: cell-based, Homo sapiens sapiens
- Protocol Conditions: Human coronavirus 229E, Huh7.5, read-out: IC50 (µM), HCoV 229E
Assign labels as follows, please: Criterion met for IC50 below 2 µM; Criterion not met for IC50 equal to or exceeding 2 µM.

[[record]]
compound = "C[C@@H]1CCCN1CCc1cc2cc(-c3ccc(C#N)cc3)ccc2o1"
class_assignment = "Criterion met"

[[record]]
compound = "Cn1cc(C2=C(c3c4n(c5ccccc35)CCC(CN)C4)C(=O)NC2=O)c2ccccc21 (stereo not shown)"
class_assignment = "Criterion met"

[[record]]
compound = "Cc1c(NCCN2CCCC2)cc(C(=O)C(C)(C)C)cc1N1CCN(c2ncnc3[nH]nc(Br)c23)CC1"
class_assignment = "Criterion met"

[[record]]
compound = "CC(=O)N(C)C1(c2ccccc2)CCN(CCC[C@]2(c3ccc(Cl)c(Cl)c3)CCCN(C(=O)c3ccccc3)C2)CC1"
class_assignment = "Criterion met"

[[record]]
compound = "OC1CCN(CCCN2c3ccccc3Sc3ccc(C(F)(F)F)cc32)C1 (stereo not shown)"
class_assignment = "Criterion met"

[[record]]
compound = "COc1cc(Nc2ncc(F)c(Nc3ccc4c(n3)N(COP(=O)(O)O)C(=O)C(C)(C)O4)n2)cc(OC)c1OC"
class_assignment = "Criterion not met"

[[record]]
compound = "OCCN1CCN(CCCC2c3ccc(F)cc3Sc3ccc(C(F)(F)F)cc32)CC1 (stereo not shown)"
class_assignment = "Criterion not met"

